test-target: Adrenergic receptor beta (Homo sapiens, UniProt P08588+P07550+P13945)
assay: In vitro blocking of beta adrenergic receptor in guinea pig trachea
Type: tissue-based, Cavia porcellus
condition-details: target entry is the homologue from another species
Assign condition met whenever pA2 does not fall below 7; assign condition not met whenever it does.

Req: Does the compound C#CC(C)(C)NCC(O)COC(=O)c1ccccc1F (stereo unspecified) have recorded pA2 that is 7 or more?
Resp: condition not met

Req: Does the compound Cc1cccc(C(=O)OCC(O)CNC(C)(C)C)c1 (stereo unspecified) have recorded pA2 that is 7 or more?
Resp: condition met

Req: Does the compound CCC(C)(C)NCC(O)COC(=O)c1ccccc1F (stereo unspecified) have recorded pA2 that is 7 or more?
Resp: condition met

Req: Does the compound COc1ccc(CCNCC(O)COC(=O)c2ccc(C)cc2)cc1OC (stereo unspecified) have recorded pA2 that is 7 or more?
Resp: condition not met

Req: Does the compound CC(C)(C)NCC(O)COC(=O)c1cccc(O)c1 (stereo unspecified) have recorded pA2 that is 7 or more?
Resp: condition met
